- TARGET SYSTEM: T1, GIP receptor (UniProt P48546 22-466, limits assumed)
- T1 sequence (looked up): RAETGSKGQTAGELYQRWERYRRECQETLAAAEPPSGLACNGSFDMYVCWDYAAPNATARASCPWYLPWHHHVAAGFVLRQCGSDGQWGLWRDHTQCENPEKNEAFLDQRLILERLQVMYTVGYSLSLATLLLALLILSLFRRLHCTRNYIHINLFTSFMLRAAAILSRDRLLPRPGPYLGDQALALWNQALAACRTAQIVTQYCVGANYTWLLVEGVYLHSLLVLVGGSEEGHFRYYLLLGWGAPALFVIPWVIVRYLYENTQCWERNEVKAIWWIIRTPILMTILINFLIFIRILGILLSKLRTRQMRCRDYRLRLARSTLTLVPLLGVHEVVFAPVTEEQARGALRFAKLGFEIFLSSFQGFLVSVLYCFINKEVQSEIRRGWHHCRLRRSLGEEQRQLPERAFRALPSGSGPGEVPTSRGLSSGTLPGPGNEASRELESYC
- TEST DESCRIPTION: cell-based or functional assay
*1 amine or outer side, *2 acyl side, *3 side chain or, on linkers, in order; H or OH if unused. Where no end group is shown, it is not given here. Side-chain parts run from the residue outwards. [ ]: non-standard residue; d: D form. The star is where a group is joined. γGlu = O=C(O)[C@H](CCC(=O)[*:2])N[*:1]; Palmitoyl = CCCCCCCCCCCCCCCC(=O)*; Myristoyl = CCCCCCCCCCCCCC(=O)*; Lauroyl = CCCCCCCCCCCC(=O)*; 40K‑ME = not defined here; 40K‑TE = not defined here; Aib = CC(C)(N)C(=O)O
Labels assigned by EC50 (cAMP reporter) range: bottom (below 0.02 nM), middle (0.02 nM to below 0.9 nM), top (0.9 nM or more)

Exam item: assign Y[Aib]QGTFTSDYSIYLDEQAAKEFV[Aib]WLLAGGPSSGAPPPSC-NH2 (lactam (positions not given here); also: lactam between underlined residues, underlining not shown) [peptide of SEQ ID NO: 56] to the correct category.
top

Exam item: assign Y[Aib]QGTFTSDK([γGlu-Myristoyl])SIYLDKQAA[Aib]EFVNWLLAGGPSSGAPPPSC(40K‑ME)-NH2 (reading uncertain) [peptide of SEQ ID NO: 68] to the correct category.
middle

Exam item: assign YXEGTFTSDYSIYLDKQAAXEFVNWLLAGGPSSGAPPPSC (not fully specified; aib at 2; acpc at 20; C-terminal C(40K-TE); NH2) [peptide of SEQ ID NO: 73] to the correct category.
top

Exam item: assign Y[Aib]QGTFTSDYSIYLDKQAA[Aib]EFVC(40K‑TE PEG)WLLAGGPSSGAPPPSK(Lauroyl)-NH2 [peptide of SEQ ID NO: 173] to the correct category.
middle

Exam item: assign Y[Aib]EGTFTSDYSIYLDKQAA[Aib]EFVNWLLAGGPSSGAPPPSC(PEG 40 kDa)-NH2 [peptide of SEQ ID NO: 175] to the correct category.
middle

Exam item: assign H[Aib]QGTFTSDYSIYLDKQAA[Aib]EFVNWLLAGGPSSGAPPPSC(40K‑TE)-NH2 (reading uncertain) [peptide of SEQ ID NO: 53] to the correct category.
middle

Exam item: assign Y[Aib]QGTFTSDYSIYLDKQAA[Aib]EFVC(40K‑TE PEG)WLLAGGPSSGAPPPSK(C14)-NH2 [peptide of SEQ ID NO: 174] to the correct category.
bottom

Exam item: assign Y[Aib]QGTFTSDK([γGlu-Palmitoyl])SIYLDKQAA[Aib]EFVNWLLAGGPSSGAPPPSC(40K‑ME)-NH2 (reading uncertain) [peptide of SEQ ID NO: 69] to the correct category.
bottom

Exam item: assign Y[Aib]QGTFTSDYSIYLDKQAA[Aib]EFVC(40K‑ME)WLLAGGPSSGAPPPSK(Palmitoyl)-NH2 (not fully specified; reading uncertain) [peptide of SEQ ID NO: 70] to the correct category.
bottom
